system: A549; test: NCI tumour cell line growth inhibition, 48 h
Calls of active or inactive are those of the source. No stated cut-off is given here; in the data, active = GI50 up to about 1.1 µM and inactive = higher.
measured_attribute: GI50

Completed entries (count: 6):
According to the records, this compound COC(=O)[C@@H]1O[C@]12[C@@H](CO[Si](C)(C)C(C)(C)C)O[C@@H](n1cc(C)c(=O)[nH]c1=O)[C@@H]2O[Si](C)(C)C(C)(C)C displays GI50 of 25.5 µM (inactive)

Lab book: GI50 of COC(=O)CCC(NC(=S)N/N=C/c1ccccn1)C(=O)OC (centres undefined) noted as > 100 µM (inactive)

Input O=C1Nc2ccccc2/C1=C\c1c(Cl)[nH]c2ccccc12 . Output GI50: 1.23 µM (inactive)

Entry CNC(=O)c1ccc(C(=O)NCCCCCN(O)C(=O)CCC(=O)NCCCCCN(O)C(=O)CCC(=O)NCCCCCN(O)C(C)=O)c(O)c1O , GI50 reported as 54.7 µM (inactive)

Looking up CC1(C)CS(=O)(=O)CC(C)(C)C(=N/N)/C1=N\N , I found its GI50 recorded as > 100 µM (inactive)

The compound CC(C)COC(c1ccc2c(c1)OCO2)C(C)Br (centres undefined) showed GI50 equal to 29.1 µM (inactive)

New cases:
The compound listed as O=c1c2cc(Br)cc(Br)c2[nH]c(=S)n1-c1ccc(/N=N/c2ccc(O)c3cccnc23)cc1 shows GI50 equal to 17.8 µM (inactive)

Notebook: CN1c2ccccc2N(C)C2C1N(C)c1ccccc1N2C (centres undefined) , GI50 read as 26.8 µM (inactive)

Recorded GI50 (compound O=C1C([N-]S(=O)(=O)c2ccccc2)=C([n+]2ccc(Cc3ccccc3)cc2)C(=O)c2ccccc21 ): 1.92 µM (inactive)

---

tested on: DU-145; assay: NCI tumour cell line growth inhibition, 48 h
The source made the active and inactive calls. No stated cut-off is given here; in the data, active = GI50 up to about 1.1 µM and inactive = higher.
measured_attribute: GI50

compound COc1ccc(N2C(=O)CC(C3CC(C(C)(C)C)CCC3=O)C2=O)cc1 (configuration not stated) , GI50 observed: > 100 µM (inactive)

Kindly note the recorded GI50 for O=C(/C=C/c1ccc(OCc2cccc(Cl)c2)cc1)NO , which is 15.3 µM (inactive)

Lab note: measured GI50 of C[Si](C)(C)C#Cc1cc(-c2nc3ccccc3s2)ccc1N was 26.6 µM (inactive)

Lab note: measured GI50 of CN(C)CC1CCCC(CN2CCCCC2)C1=O (configuration not stated) was 18.2 µM (inactive)

Field GI50 (entry O=C(/C=C1\Nc2ccccc2N=C1NC12CC3CC(CC(C3)C1)C2)c1ccc(Br)cc1 ) reads > 10 µM (inactive)

# context switch: different compound, same GI50
Quick note, GI50 for CCCCCCCCCCCCCCCCCCOP1(=O)OCCO1 landed at > 100 µM (inactive)

---

tested on: LXFL 529; assay: NCI tumour cell line growth inhibition, 48 h
Activity calls are given as the source filed them. No stated cut-off is given here; in the data, active = GI50 up to about 1.1 µM and inactive = higher.
Documented GI50 across a set of compounds

Record summary for COc1ccccc1C1C(Cl)C(=O)N1n1cnc2ccccc2c1=O (stereo not given) : reported GI50 = > 100 µM (inactive)

GET /value?item= CC12CCC(=O)N1[C@@H](c1ccccc1)[C@@H](c1ccccc1)O2 (stereo not given in full) &field=GI50 returns > 100 µM (inactive)

O=C(c1ccc(NCN2C(=O)CCC2=O)cc1)c1ccc(NCN2C(=O)CCC2=O)cc1 yielded GI50 of > 100 µM (inactive)

Lab note: COc1cc2c(cc1OC)C(=O)Cc1ccc(OC)c(OC)c1CN(C)CC2 gave GI50 of > 100 µM (inactive)

// switching to the query compound
So for O=C(Cc1ccccc1)NN1C(=O)C(Cl)C1c1ccc([N+](=O)[O-])cc1 (stereo not given) , the logged GI50 turned out to be 95.9 µM (inactive)

Reference source: ChEMBL document CHEMBL1201862
